- measured target: 5-hydroxytryptamine receptor 2A (Homo sapiens) (UniProt P28223)
- Sequence (P28223 whole entry): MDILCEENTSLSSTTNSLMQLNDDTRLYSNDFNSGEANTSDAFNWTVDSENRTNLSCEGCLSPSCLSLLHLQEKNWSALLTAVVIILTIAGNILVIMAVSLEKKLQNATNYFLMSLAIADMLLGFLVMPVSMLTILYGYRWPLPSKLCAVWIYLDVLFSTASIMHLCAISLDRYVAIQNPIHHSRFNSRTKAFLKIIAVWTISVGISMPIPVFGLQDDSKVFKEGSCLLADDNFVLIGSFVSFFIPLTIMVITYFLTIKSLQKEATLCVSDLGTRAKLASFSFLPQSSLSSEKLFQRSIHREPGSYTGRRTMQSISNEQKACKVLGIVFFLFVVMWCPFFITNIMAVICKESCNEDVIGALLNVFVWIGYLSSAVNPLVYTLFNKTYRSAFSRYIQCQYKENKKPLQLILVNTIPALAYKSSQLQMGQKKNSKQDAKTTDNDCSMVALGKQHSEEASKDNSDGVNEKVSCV
- test details: Displacement of [3H]ketanserin from human 5HT2A receptor expressed in HEKT cells membranes at 10 uM
- Assay type: cell membranes
Assign class by inhibition: not lower than 20% means True; lower than 20% means False.

Query string: # check: inhibition of `O=c1cc(CCc2ccccc2O)oc2cc(O)ccc12` is greater than or equal to 20%
Result string: True

Query string: One more molecule: `O=c1cc(COCc2ccccc2)oc2cccc(O)c12`
Result string: False

Query string: Same again, this time with `O=c1cc(CCc2ccccc2O)oc2cccc(O)c12`
Result string: True

Query string: Now consider `O=c1cc(CCc2cccc(O)c2)oc2cc(O)ccc12` and answer again.
Result string: True

Query string: // same read-out, input: `O=c1cc(CCc2ccc(O)cc2)oc2cc(O)ccc12`
Result string: True

Query string: Now consider `O=c1cc(CCc2ccccc2)oc2cc(O)ccc12` and answer again.
Result string: True

Query string: Check `O=c1cc(CCc2cccc(O)c2)oc2cccc(O)c12` too.
Result string: True

Query string: Also check `O=c1cc(CCc2ccco2)oc2cccc(O)c12`
Result string: False

----------
Kindly supply the reported inhibition values for the records listed here.
- measured target: 5-hydroxytryptamine receptor 2C (Homo sapiens) (UniProt P28335)
- Sequence (P28335 whole entry): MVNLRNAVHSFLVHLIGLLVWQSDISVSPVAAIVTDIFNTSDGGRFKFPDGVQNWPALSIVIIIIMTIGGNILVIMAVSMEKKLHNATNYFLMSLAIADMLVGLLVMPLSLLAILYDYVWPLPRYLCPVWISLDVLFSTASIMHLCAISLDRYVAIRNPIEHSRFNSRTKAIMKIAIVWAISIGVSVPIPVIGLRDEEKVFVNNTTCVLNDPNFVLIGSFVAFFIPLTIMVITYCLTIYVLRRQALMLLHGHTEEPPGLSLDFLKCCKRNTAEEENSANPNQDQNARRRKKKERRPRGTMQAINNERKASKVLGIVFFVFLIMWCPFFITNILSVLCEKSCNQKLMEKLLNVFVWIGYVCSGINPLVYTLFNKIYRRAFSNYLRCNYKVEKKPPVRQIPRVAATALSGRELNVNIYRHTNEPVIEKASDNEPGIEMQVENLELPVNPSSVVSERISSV
- test details: Displacement of [3H]mesulergine from human 5HT2C receptor expressed in Flp-IN HEK cell membranes at 10 uM
- measurement parameters: HEK293
The figure you give is taken to be in %; do not add the unit.

Query string: Find inhibition (5-hydroxytryptamine receptor 2C (Homo sapiens) (UniProt P28335)) for the entry `O=c1cc(COc2ccccc2)oc2cccc(O)c12`
Result string: 7

Query string: Let us now turn to `O=c1cc(CCc2ccccc2)oc2cc(O)ccc12`
Result string: 33.7

Query string: And for `O=c1cc(CCc2ccccc2O)oc2cc(O)ccc12` ?
Result string: 44

Query string: Try `O=c1cc(CCc2ccc(O)cc2)oc2cc(O)ccc12` next.
Result string: 53.1

Query string: Item: `O=c1cc(CCc2ccccc2O)oc2cccc(O)c12`
Result string: 23.8

Query string: Would you kindly repeat that for `O=c1cc(CCc2ccco2)oc2cccc(O)c12` ?
Result string: 24.2

Query string: Same read-out for `O=c1cc(CCc2cccc(O)c2)oc2cccc(O)c12` ?
Result string: 30.4

Query string: Query `O=c1cc(COCc2ccccc2)oc2cccc(O)c12` next
Result string: 42.1

Query string: Please do the same for `O=c1cc(CCc2cccc(O)c2)oc2cc(O)ccc12` as well.
Result string: 0

----------
- measured target: 5-hydroxytryptamine receptor 2B (Homo sapiens)
- test details: Displacement of [3H]LSD from human 5HT2B receptor expressed in stable HEK cells membranes at 10 uM
- Assay type: cell membranes
- measurement parameters: HEK293
Think of 70% as a floor: if inhibition stands on it or above, it is true; beneath it, false.

Query string: Tell me whether inhibition is at least 70% here: `O=c1cc(COCc2ccccc2)oc2cccc(O)c12`
Result string: true

Query string: Next molecule up: `O=c1cc(CCc2cccc(O)c2)oc2cccc(O)c12`
Result string: true

Query string: What about this molecule? `O=c1cc(CCc2ccccc2)oc2cc(O)ccc12`
Result string: false

Query string: Now try `O=c1cc(CCc2ccccc2O)oc2cc(O)ccc12` .
Result string: false

Query string: Now consider `O=c1cc(CCc2ccc(O)cc2)oc2cc(O)ccc12` and answer again.
Result string: false

Query string: Would you mind doing `O=c1cc(CCc2cccc(O)c2)oc2cc(O)ccc12` as well?
Result string: false

Query string: Similarly, `O=c1cc(CCc2ccccc2O)oc2cccc(O)c12` ?
Result string: false
